- Tested on: NTCP-expressing HepG2 (NTCP/G2) cells
- TEST NAME: Cytotoxicity, CellTiter-Glo, NTCP/G2 cells
- Type: cell-based
- EXPERIMENTAL CONTEXT: day 9
OBSERVED PROPERTY: CC50 (µM)

| COMPOUND | OBSERVED PROPERTY | DATA VALUE |
| --- | --- | --- |
| N=C(N)SCCc1ccc(OCc2ccc([N+](=O)[O-])cc2)cc1 [KB-R7943] | CC50 | 37.4 |

###

- TEST NAME: Cytotoxicity, CellTiter-Glo, NTCP/G2 cells
- Assay type: cell-based
- EXPERIMENTAL CONTEXT: human, NTCP-expressing HepG2 (NTCP/G2) cells, day 9
OBSERVED PROPERTY: CC50 at 9 days

| ENTRY SMILES | DATA VALUE |
| --- | --- |
| Cc1ccc(C(=O)Nc2ccc(S(=O)(=O)O)c3cc(S(=O)(=O)O)cc(S(=O)(=O)O)c23)cc1NC(=O)c1cccc(NC(=O)Nc2cccc(C(=O)Nc3cc(C(=O)Nc4ccc(S(=O)(=O)O)c5cc(S(=O)(=O)O)cc(S(=O)(=O)O)c45)ccc3C)c2)c1 | > 200 µM |

###

- TEST NAME: Cytotoxicity, CellTiter-Glo, HB611 cells
- Format: cell-based, human
- EXPERIMENTAL CONTEXT: human; HB611 cells, day 9
OBSERVED PROPERTY: CC50 at 9 days

| COMPOUND | DATA VALUE |
| --- | --- |
| Cc1ccc(C(=O)Nc2ccc(S(=O)(=O)O)c3cc(S(=O)(=O)O)cc(S(=O)(=O)O)c23)cc1NC(=O)c1cccc(NC(=O)Nc2cccc(C(=O)Nc3cc(C(=O)Nc4ccc(S(=O)(=O)O)c5cc(S(=O)(=O)O)cc(S(=O)(=O)O)c45)ccc3C)c2)c1 [Suramin] | 168 µM |

Data origin, for the record: paper PMC7472185
